# testSystem: Cyclin E1 (Homo sapiens, UniProt P24864+Q96SW2)
# Sequence (P24864 whole entry): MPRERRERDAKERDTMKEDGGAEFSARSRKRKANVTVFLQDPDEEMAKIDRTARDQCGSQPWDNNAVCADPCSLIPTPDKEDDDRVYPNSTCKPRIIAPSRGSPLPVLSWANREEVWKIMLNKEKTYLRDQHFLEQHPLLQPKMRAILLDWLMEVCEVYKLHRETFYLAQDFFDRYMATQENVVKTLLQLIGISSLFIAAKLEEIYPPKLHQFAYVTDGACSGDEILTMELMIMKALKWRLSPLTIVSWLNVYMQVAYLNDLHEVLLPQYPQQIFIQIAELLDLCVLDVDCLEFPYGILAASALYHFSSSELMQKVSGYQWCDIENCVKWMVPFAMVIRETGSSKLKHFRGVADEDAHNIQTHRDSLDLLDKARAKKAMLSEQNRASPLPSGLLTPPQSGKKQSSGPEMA
# Sequence (Q96SW2 whole entry): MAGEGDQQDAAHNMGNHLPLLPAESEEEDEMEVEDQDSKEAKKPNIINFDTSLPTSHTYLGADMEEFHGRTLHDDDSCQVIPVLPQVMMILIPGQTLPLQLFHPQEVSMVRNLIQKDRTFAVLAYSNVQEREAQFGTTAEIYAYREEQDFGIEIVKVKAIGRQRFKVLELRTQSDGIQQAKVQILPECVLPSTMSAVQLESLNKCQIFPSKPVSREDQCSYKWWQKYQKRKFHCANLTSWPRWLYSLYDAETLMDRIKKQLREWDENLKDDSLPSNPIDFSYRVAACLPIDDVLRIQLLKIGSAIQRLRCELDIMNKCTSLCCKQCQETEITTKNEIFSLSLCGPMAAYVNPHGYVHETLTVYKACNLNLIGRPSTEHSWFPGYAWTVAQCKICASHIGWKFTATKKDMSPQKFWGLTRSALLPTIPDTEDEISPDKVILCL
# Sequence (Q16531 whole entry partner): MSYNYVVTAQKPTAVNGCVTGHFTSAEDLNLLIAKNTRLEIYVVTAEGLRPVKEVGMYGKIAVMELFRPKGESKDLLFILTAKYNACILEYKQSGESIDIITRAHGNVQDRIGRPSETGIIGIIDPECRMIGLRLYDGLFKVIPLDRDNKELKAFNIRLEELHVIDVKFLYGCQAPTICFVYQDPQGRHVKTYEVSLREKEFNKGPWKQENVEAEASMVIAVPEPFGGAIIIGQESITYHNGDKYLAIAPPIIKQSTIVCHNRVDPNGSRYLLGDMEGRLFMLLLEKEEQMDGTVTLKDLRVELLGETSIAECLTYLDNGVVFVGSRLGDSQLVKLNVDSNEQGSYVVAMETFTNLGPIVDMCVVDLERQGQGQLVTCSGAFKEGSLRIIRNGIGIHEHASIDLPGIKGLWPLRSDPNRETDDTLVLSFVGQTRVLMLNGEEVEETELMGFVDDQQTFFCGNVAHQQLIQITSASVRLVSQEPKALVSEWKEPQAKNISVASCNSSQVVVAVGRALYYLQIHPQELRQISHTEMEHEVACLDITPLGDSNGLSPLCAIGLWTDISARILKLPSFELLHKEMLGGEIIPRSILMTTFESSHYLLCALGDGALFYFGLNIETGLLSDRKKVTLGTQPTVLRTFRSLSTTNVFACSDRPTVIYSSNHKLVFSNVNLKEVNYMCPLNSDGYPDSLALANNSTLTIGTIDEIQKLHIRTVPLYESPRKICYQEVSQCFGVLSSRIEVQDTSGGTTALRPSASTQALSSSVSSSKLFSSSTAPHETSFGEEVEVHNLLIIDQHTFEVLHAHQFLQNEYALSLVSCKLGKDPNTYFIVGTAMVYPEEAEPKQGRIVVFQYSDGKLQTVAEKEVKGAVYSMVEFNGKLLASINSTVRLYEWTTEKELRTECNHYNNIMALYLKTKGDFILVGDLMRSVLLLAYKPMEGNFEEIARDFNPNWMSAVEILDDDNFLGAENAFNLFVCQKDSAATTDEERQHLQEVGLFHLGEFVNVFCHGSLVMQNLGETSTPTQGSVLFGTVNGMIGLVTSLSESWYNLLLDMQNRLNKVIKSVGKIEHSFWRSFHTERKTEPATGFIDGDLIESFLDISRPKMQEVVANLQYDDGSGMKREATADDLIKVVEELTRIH
# methodNotes: Cyclin E1 Cellular Degradation Assay (MSD)
# Type: cell-based
# Set-up: endogenous in cells; host or cells: OVCAR3
# testConditions: Cyclin E1 cellular degradation, maximum degradation
measurementKind: Dmax (%)
All answers are understood in %, so give the number only.

Dmax reported for this compound O=C1CCC(N2Cc3ccc(COC(=O)Nc4ccc(Oc5cccc(F)c5)cc4)c(Oc4ccccc4)c3C2=O)C(=O)N1 (stereo not shown) : 109

GET /value?item= COc1c(COC(=O)Nc2ccc(Oc3cc(F)c(F)c(F)c3)cc2)ccc2c1C(=O)N(C1CCC(=O)NC1=O)C2 (stereo not shown) &field=Dmax returns 113

Kindly note the recorded Dmax for COc1c(COC(=O)Nc2ccc(Oc3cccc4ccccc34)cc2)ccc2c1C(=O)N(C1CCC(=O)NC1=O)C2 (stereo not shown) , which is 113

// recorded Dmax for O=C1CCC(N2Cc3ccc(COC(=O)Nc4ccc(Oc5ccc(F)c(F)c5)cc4)c(O[C@@H]4CCCOC4)c3C2=O)C(=O)N1 (stereo partly shown) : 112

The recorded Dmax for COc1c(COC(=O)Nc2ccc(Oc3ccccc3)cc2)ccc2c1C(=O)N(C1CCC(=O)NC1=O)C2 (stereo not shown) is 108

Dmax in this record for O=C1CCC(N2Cc3ccc(COC(=O)Nc4ccc(Oc5cccc(F)c5)cc4)c(O[C@@H]4CCCOC4)c3C2=O)C(=O)N1 (stereo partly shown) : 110

Please fill in: Dmax reported for CC(C)Oc1c(COC(=O)Nc2ccc(Oc3ccccc3)cc2)ccc2c1C(=O)N(C1CCC(=O)NC1=O)C2 (stereo not shown) = 102

Dmax in this record for COc1c(COC(=O)Nc2ccc(Oc3ccccc3C(F)F)cc2F)ccc2c1C(=O)N(C1CCC(=O)NC1=O)C2 (stereo not shown) : 107

Item: COc1c(COC(=O)Nc2ccc(Oc3cc(F)c(F)cc3C)cc2C)ccc2c1C(=O)N(C1CCC(=O)NC1=O)C2 (stereo not shown) | Dmax: 111

Value of Dmax reported for the compound O=C1CCC(N2Cc3ccc(COC(=O)Nc4ccc(Oc5ccc(F)c(F)c5)cc4F)c(O[C@@H]4CCCOC4)c3C2=O)C(=O)N1 (stereo partly shown) is 112

// Dmax value for CC(C)Oc1c(COC(=O)Nc2ccc(Oc3ccc(F)c(F)c3)cc2)ccc2c1C(=O)N([C@H]1CCC(=O)NC1=O)C2 (single isomer, unassigned) : 107

Dmax measured on COc1c(COC(=O)Nc2ccc(Oc3ccccc3Cl)cc2F)ccc2c1C(=O)N(C1CCC(=O)NC1=O)C2 (stereo not shown) = 108

GET /value?item= [2H]C1([2H])C(=O)NC(=O)[C@@]([2H])(N2Cc3ccc(COC(=O)Nc4ccc(Oc5ccc(F)c(F)c5)cc4)c(OC)c3C2=O)C1([2H])[2H] &field=Dmax returns 111

---

# testSystem: GSPT1 (Homo sapiens, UniProt P15170+Q96SW2)
# Sequence (P15170 whole entry): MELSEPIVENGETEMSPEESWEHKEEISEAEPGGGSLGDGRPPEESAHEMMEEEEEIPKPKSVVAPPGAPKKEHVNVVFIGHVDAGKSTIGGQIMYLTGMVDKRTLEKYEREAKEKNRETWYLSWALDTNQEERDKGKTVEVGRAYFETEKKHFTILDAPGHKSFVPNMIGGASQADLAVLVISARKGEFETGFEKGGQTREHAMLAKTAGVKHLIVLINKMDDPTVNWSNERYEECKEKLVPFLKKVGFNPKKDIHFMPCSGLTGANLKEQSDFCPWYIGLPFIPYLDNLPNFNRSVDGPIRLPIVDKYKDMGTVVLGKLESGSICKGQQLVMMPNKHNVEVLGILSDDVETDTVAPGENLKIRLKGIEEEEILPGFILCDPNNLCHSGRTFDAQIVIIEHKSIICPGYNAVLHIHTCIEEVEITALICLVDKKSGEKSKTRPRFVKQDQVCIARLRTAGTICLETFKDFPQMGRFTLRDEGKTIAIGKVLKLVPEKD
# Sequence (Q96SW2 whole entry): as the sequence (Q96SW2 whole entry) above
# Sequence (Q16531 whole entry partner): as the sequence (Q16531 whole entry partner) above
# methodNotes: GSPT1 Cellular Degradation Assay (DF15-GSPT1-ePL)
# Type: cell-based
# Design: expressed in transfected cells
# testConditions: DF15-GSPT1-ePL cells, 20 hours
measurementKind: Dmax (%)
The reply should be a number in %, with the unit left off.

Quick note, Dmax for COc1c(COC(=O)Nc2ccc(Oc3ccc(F)cc3F)cc2C)ccc2c1C(=O)N(C1CCC(=O)NC1=O)C2 (stereo not shown) landed at 20

// Dmax value for COc1c(COC(=O)Nc2ccc(C(F)(F)c3ccccc3)cc2)ccc2c1C(=O)N(C1CCC(=O)NC1=O)C2 (stereo not shown) : 45

According to the records, this molecule O=C1CCC(N2Cc3ccc(COC(=O)Nc4ccc(Oc5ccccc5Cl)cc4)c(OC4CCOCC4)c3C2=O)C(=O)N1 (stereo not shown) displays Dmax of 0

Kindly note the recorded Dmax for COc1c(COC(=O)Nc2ccc(Oc3ccc(Cl)c(F)c3)cc2)ccc2c1C(=O)N(C1CCC(=O)NC1=O)C2 (stereo not shown) , which is 27

Lab book: Dmax of COc1c(COC(=O)Nc2ccc(Oc3cccc(Cl)c3)cc2F)ccc2c1C(=O)N(C1CCC(=O)NC1=O)C2 (stereo not shown) noted as 32

Reported Dmax of COc1c(COC(=O)Nc2ccc(Oc3cc(F)ccc3Cl)cc2)ccc2c1C(=O)N(C1CCC(=O)NC1=O)C2 (stereo not shown) : 47

The molecule COc1c(COC(=O)Nc2ccc(Oc3cc(F)cc(F)c3)cc2)ccc2c1C(=O)N(C1CCC(=O)NC1=O)C2 (stereo not shown) showed Dmax equal to 7

---

# testSystem: Cyclin E1 (Homo sapiens, UniProt P24864+Q96SW2)
# methodNotes: Cyclin E1 Cellular Degradation Assay (MSD)
# Assay type: cell-based
# Parameters: endogenous in cells; host or cells: OVCAR3
# testConditions: Cyclin E1 cellular degradation, maximum degradation
Assignment: determine reported Dmax for the given molecules.
Express your answer as a number followed by its unit.

Reported Dmax ( O=C1CCC(N2Cc3ccc(COC(=O)Nc4ccc(Oc5cc(F)c(F)c(F)c5)cc4F)c(O[C@@H]4CCCOC4)c3C2=O)C(=O)N1 (stereo partly shown) ) = 100%

Measured Dmax of COc1c(COC(=O)Nc2ccc(Oc3ccc(F)cc3C)cc2C)ccc2c1C(=O)N(C1CCC(=O)NC1=O)C2 (stereo not shown) : 111%

Entry COc1c(COC(=O)Nc2ccc(Oc3ccc(F)c(Cl)c3)cc2)ccc2c1C(=O)N(C1CCC(=O)NC1=O)C2 (stereo not shown) — recorded Dmax = 108%

Dmax reading for COc1c(COC(=O)Nc2ccc(Oc3ccc(F)cc3)cc2)ccc2c1C(=O)N(C1CCC(=O)NC1=O)C2 (stereo not shown) : 108%

---

# Tested on: Phospho-Rb (Ser807/811)
# methodNotes: Phospho-Retinoblastoma (pRB) Cellular Assay
# Format: cell-based
# testConditions: Homo sapiens, OVCAR-3; NIH OVCAR3 cells, 24 hours; concentration giving 50% response
Please respond with reported IC50 for every item in the list.
# output: bare number, implied unit nM

According to the records, this molecule COc1c(COC(=O)Nc2ccc(Oc3ccc(F)cc3Cl)cc2)ccc2c1C(=O)N(C1CCC(=O)NC1=O)C2 (centres unmarked) displays IC50 of 121

The recorded IC50 for entry CC(C)Oc1c(COC(=O)Nc2ccc(Oc3ccccc3Cl)cc2)ccc2c1C(=O)N(C1CCC(=O)NC1=O)C2 (centres unmarked) equals 54

// recorded IC50 for O=C1CCC(N2Cc3ccc(COC(=O)Nc4ccc(Oc5ccc(F)c(F)c5)cc4)c(O[C@H]4CCOC4)c3C2=O)C(=O)N1 (some centres unmarked) : 152

Reported IC50 ( CC(C)(O)COc1c(COC(=O)Nc2ccc(Oc3ccc(F)c(F)c3)cc2F)ccc2c1C(=O)N(C1CCC(=O)NC1=O)C2 (centres unmarked) ) = 37

For COc1cc(Oc2ccc(F)c(Cl)c2)ccc1NC(=O)OCc1ccc2c(c1OC)C(=O)N(C1CCC(=O)NC1=O)C2 (centres unmarked) the molecule record lists IC50 as 140

Lab note: COc1c(COC(=O)Nc2ccc(Oc3ccc(F)cc3C(F)F)cc2)ccc2c1C(=O)N(C1CCC(=O)NC1=O)C2 (centres unmarked) gave IC50 of 159

Documented IC50 of COc1c(COC(=O)Nc2ccc(Oc3cccc(F)c3)cc2)ccc2c1C(=O)N(C1CCC(=O)NC1=O)C2 (centres unmarked) : 89

Reported IC50 ( CC(C)COc1c(COC(=O)Nc2ccc(Oc3ccc(F)c(F)c3)cc2)ccc2c1C(=O)N(C1CCC(=O)NC1=O)C2 (centres unmarked) ) = 45

The value of IC50 measured for the molecule COc1cc(Oc2ccccc2C(F)F)ccc1NC(=O)OCc1ccc2c(c1OC)C(=O)N(C1CCC(=O)NC1=O)C2 (centres unmarked) turned out to be 227

According to the records, this molecule O=C1CCC(N2Cc3ccc(COC(=O)Nc4ccc(Oc5ccc(F)c(F)c5)cc4F)c(O[C@@H]4CCCOC4)c3C2=O)C(=O)N1 (some centres unmarked) displays IC50 of 38

Looking up O=C1CCC(N2Cc3ccc(COC(=O)Nc4ccc(Oc5ccc(F)cc5F)cc4F)c(OC4CCOCC4)c3C2=O)C(=O)N1 (centres unmarked) , I found its IC50 recorded as 24

Record summary for COc1cc(Oc2cc(F)c(F)cc2Cl)ccc1NC(=O)OCc1ccc2c(c1OC)C(=O)N(C1CCC(=O)NC1=O)C2 (centres unmarked) : reported IC50 = 111

Reported IC50 for O=C1CCC(N2Cc3ccc(COC(=O)Nc4ccc(Oc5ccc(F)c(F)c5)cc4)c(OC4CCCCC4)c3C2=O)C(=O)N1 (centres unmarked) was 19

Measured IC50, CC(C)Oc1c(COC(=O)Nc2ccc(Oc3cccc(F)c3F)cc2)ccc2c1C(=O)N(C1CCC(=O)NC1=O)C2 (centres unmarked) : 55

---

# testSystem: GSPT1 (Homo sapiens, UniProt P15170+Q96SW2)
# methodNotes: GSPT1 Cellular Degradation Assay (DF15-GSPT1-ePL)
# Format: cell-based
# Parameters: expressed in transfected cells
# testConditions: DF15-GSPT1-ePL cells, 20 hours
Quick rule: Dmax of at least 7% means Condition met, below that means Condition not met.

IN: Determine whether this compound has Dmax no lower than 7%: COc1c(COC(=O)Nc2ccc(Oc3ccc(F)c(Cl)c3)cc2F)ccc2c1C(=O)N(C1CCC(=O)NC1=O)C2 (stereo not shown)
OUT: Condition met

IN: Record O=C1CCC(N2Cc3ccc(COC(=O)Nc4ccc(Oc5cc(F)cc(F)c5)cc4F)c(OC4CCOCC4)c3C2=O)C(=O)N1 (stereo not shown) ; criterion: Dmax no lower than 7%. Met?
OUT: Condition not met

IN: Check this compound for Dmax at or above 7%: O=C1CCC(N2Cc3ccc(COC(=O)Nc4ccc(Oc5ccc(F)cc5)cc4)c(O[C@@H]4CCCOC4)c3C2=O)C(=O)N1 (stereo partly shown)
OUT: Condition not met

IN: Would you say COc1c(COC(=O)Nc2ccc(Oc3ccc(F)cc3C)cc2C)ccc2c1C(=O)N(C1CCC(=O)NC1=O)C2 (stereo not shown) shows Dmax at minimum 7%?
OUT: Condition met

IN: Exam item: decide whether the reported Dmax for O=C1CCC(N2Cc3ccc(COC(=O)Nc4ccc(Oc5ccc(F)cc5F)cc4F)c(OC4CCOCC4)c3C2=O)C(=O)N1 (stereo not shown) is at least 7%.
OUT: Condition met

IN: Identify whether the reported Dmax of the following compound is 7% or greater: O=C1CCC(N2Cc3ccc(COC(=O)Nc4ccc(Oc5ccc(F)c(F)c5)cc4F)c(O[C@@H]4CCOC4)c3C2=O)C(=O)N1 (stereo partly shown)
OUT: Condition met
